Below, each of the molecules is paired with its reported normalized percentage of cells responding to PbTx-1 with the second peak value.
- Test system: sensory neurons
- Type: cell-based, rat
result-type: normalized percentage of cells responding to PbTx-1 with the second peak (%)

# molecule, test-value
rows = [
    ("C1CCC[C@H]2CCCN3CC[C@@H](CCCCCC[C@@H]4CCCN5CC[C@@H](CC1)O[C@@H]45)O[C@@H]23", 62.5),
    ("Cc1c(C(=O)Nc2cccc(C(F)(F)F)c2)cc(-c2ccccc2)n1CCCN1CCOCC1", 35.6),
    ("CC(C)C[C@H](NC(=O)[C@H](Cc1ccccc1)NC(=O)OCc1ccccc1)C(=O)C=O", 45.2),
    ("Cl.Cn1cc(C2=C(c3c4n(c5ccccc35)CCC(CN)C4)C(=O)NC2=O)c2ccccc21 (centres unmarked) [BimX, Bisindolylmaleimide X hydrochloride]", 67.7),
    ("CCC(C)[C@H](NC(=O)[C@H](CC1CCCCC1)NC(=O)c1ccno1)C(=O)N1CCC2(CCc3ccccc32)CC1 (some centres unmarked)", 48.9),
]
